assay.system: T1, human ICOS, full-length, expressed on transfected Expi293 cells (human, UniProt Q9Y6W8 21-199)
T1 construct: whole, on cells
T1 sequence (looked up): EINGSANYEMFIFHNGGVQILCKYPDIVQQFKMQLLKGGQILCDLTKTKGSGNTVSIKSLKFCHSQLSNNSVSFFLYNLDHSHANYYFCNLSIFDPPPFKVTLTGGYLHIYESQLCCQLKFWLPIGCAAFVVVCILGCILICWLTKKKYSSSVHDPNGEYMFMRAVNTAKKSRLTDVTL
experimental.protocol: flow cytometry, 100 nM, Expi293 cells with human ICOS
value.type: MFI ratio to WT (ΔWT) (fold)
Numeric only. Scale: fold

Challenge: What does the data say about its MFI ratio to WT (ΔWT)? Entry: variant ICOSL IgV-Fc fusion N52T/N57H/Q100S (Fc fusion) DTQEKEVRAMVGSDVELSCACPEGSRFDLNDVYVYWQTSESKTVVTYHIPQTSSLEHVDSRYRNRALMSPAGMLRGDFSLRLFNVTPQDEQKFHCLVLSSSLGFQEVLSVEVTLHVAANFSVGSGGGGSEPKSSDKTHTCPPCPAPEAEGAPSVFLFPPKPKDTLMISRTPEVTCVVVDVSHEDPEVKFNWYVDGVEVHNAKTKPREEQYNSTYRVVSVLTVLHQDWLNGKEYKCKVSNKALPAPIEKTISKAKGQPREPQVYTLPPSREEMTKNQVSLTCLVKGFYPSDIAVEWESNGQPENNYKTTPPVLDSDGSFFLYSKLTVDKSRWQQGNVFSCSVMHEALHNHYTQKSLSLSPG
Response given: 1.22
